target or test system: acetylcholine esterase (eeAChE, EC 3.1.1.7) (Electrophorus electricus)
protocol: Acetylcholine esterase inhibition activity (ACh quantification colorimetric assay kit)
Assay type: biochemical
condition context: 30 μM compound; read-out: Residual activity of acetylcholine esterase (%)
Reported values of remaining activity at 30 µM for individual entries
Output spec: scalar in %, unitless text.

Query: Which remaining activity at 30 µM value is on record for O=C1C=CC2(C=C1)OCC(Cc1ccc(C(F)(F)F)cc1)C(=O)N2c1ccccc1 (stereo not shown) ?
Result: 22.1

Query: Which remaining activity at 30 µM value is on record for O=C1C=CC2(C=C1)OCC(Cc1ccccc1)C(=O)N2c1ccccc1 (stereo not shown) ?
Result: 6.07

Query: Which remaining activity at 30 µM value is on record for C=CCC1COC2(C=CC(=O)C=C2)N(c2ccccc2)C1=O (stereo not shown) ?
Result: -2.03

Query: Which remaining activity at 30 µM value is on record for O=C1C=CC2(C=C1)OCC(Cc1ccccc1)C(=O)N2c1cccnc1 (stereo not shown) ?
Result: 8.07

---

target or test system: UniProtKB O42275
protocol: Acetylcholine esterase inhibition activity (ACh quantification colorimetric assay kit)
Format: biochemical
condition context: 30 μM compound; read-out: Residual activity of acetylcholine esterase (%)
Classes (remaining activity at 30 µM): class 0 = under 3%, class 1 = from 3% up to 8%, class 2 = 8% and over

Please review the entries below; each comes with its answer.
molecule: CC1COC2(C=CC(=O)C=C2)N(c2ccccc2)C1=O (stereo not drawn)
class assignment: class 1
--
molecule: CC1COC2(C=CC(=O)C(F)=C2)N(c2ccccc2)C1=O (stereo not drawn)
class assignment: class 0
--
molecule: C=CCC1COC2(C=CC(=O)C(F)=C2)N(c2ccccc2)C1=O (stereo not drawn)
class assignment: class 1
--
molecule: CN1C(=O)C(Cc2ccccc2)COC12C=CC(=O)C=C2 (stereo not drawn)
class assignment: class 0
--
molecule: O=C1C=CC2(C=C1)OCC(Cc1ccc(F)cc1)C(=O)N2c1ccccc1 (stereo not drawn)
class assignment: class 1
--
molecule: O=C1C=CC2(C=C1)OCC(Cc1ccc(Br)cc1)C(=O)N2c1ccccc1 (stereo not drawn)
class assignment: class 2

Next, consider the following molecule.
Query: Where would O=C1C=CC2(C=C1F)OCC(Cc1ccccc1)C(=O)N2c1ccccc1 (stereo not drawn) land among the classes by reported remaining activity at 30 µM?
Result: class 2

---

target or test system: acetylcholine esterase (eeAChE, EC 3.1.1.7) (Electrophorus electricus, UniProt O42275)
Sequence (O42275 24-633): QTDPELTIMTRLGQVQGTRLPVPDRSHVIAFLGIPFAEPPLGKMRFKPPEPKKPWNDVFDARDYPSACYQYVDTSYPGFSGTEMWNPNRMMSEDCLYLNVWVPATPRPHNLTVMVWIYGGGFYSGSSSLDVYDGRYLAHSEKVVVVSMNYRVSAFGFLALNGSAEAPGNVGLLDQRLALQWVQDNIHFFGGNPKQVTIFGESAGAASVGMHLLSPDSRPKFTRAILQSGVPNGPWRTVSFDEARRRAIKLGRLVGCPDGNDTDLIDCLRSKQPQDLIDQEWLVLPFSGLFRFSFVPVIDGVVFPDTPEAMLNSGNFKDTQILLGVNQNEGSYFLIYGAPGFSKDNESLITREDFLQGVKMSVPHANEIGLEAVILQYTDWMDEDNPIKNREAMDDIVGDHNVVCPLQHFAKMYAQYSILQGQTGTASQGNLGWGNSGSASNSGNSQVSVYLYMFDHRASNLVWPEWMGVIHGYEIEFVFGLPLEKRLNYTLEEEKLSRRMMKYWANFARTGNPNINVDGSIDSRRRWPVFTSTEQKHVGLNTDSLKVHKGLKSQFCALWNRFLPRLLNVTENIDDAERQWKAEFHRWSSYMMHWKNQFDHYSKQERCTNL
protocol: Acetylcholine esterase inhibition activity (ACh quantification colorimetric assay kit)
Format: biochemical
condition context: 10 μM compound; read-out: Residual activity of acetylcholine esterase (%)
property name: remaining activity at 10 µM
Answer shape: numeric part, then the unit.

# annotated cases, reported remaining activity at 10 µM shown
compound: CC1=CC2(C=CC1=O)OCC(C)C(=O)N2c1ccccc1 (stereo not shown)
endpoint result: 20.9%
//
compound: CC1=CC2(C=CC1=O)OCC(Cc1ccccc1)C(=O)N2c1ccccc1 (stereo not shown)
endpoint result: 55.4%
//
compound: C=CCC1COC2(C=CC(=O)C(F)=C2)N(c2ccccc2)C1=O (stereo not shown)
endpoint result: 38.1%
//
compound: O=C1C=CC2(C=C1)OCC(Cc1ccc(C(F)(F)F)cc1)C(=O)N2c1ccccc1 (stereo not shown)
endpoint result: 69.4%
//
compound: O=C1C=CC2(C=C1)OCC(Cc1ccccc1)C(=O)N2c1ccccc1 (stereo not shown)
endpoint result: 40.2%

Query: Which remaining activity at 10 µM value is on record for O=C1C=CC2(C=C1F)OCC(Cc1ccccc1)C(=O)N2c1ccccc1 (stereo not shown) ?
Result: 35.6%

Query: Which remaining activity at 10 µM value is on record for CC1COC2(C=CC(=O)C=C2)N(c2ccccc2)C1=O (stereo not shown) ?
Result: 29.7%

Query: Which remaining activity at 10 µM value is on record for CN1C(=O)C(Cc2ccccc2)COC12C=CC(=O)C=C2 (stereo not shown) ?
Result: 50.5%

Query: Which remaining activity at 10 µM value is on record for O=C1C=CC2(C=C1)OCC(Cc1ccc(F)cc1)C(=O)N2c1ccccc1 (stereo not shown) ?
Result: 46.7%

Query: Which remaining activity at 10 µM value is on record for C=CCC1COC2(C=CC(=O)C=C2)N(c2ccccc2)C1=O (stereo not shown) ?
Result: 30.3%

Query: Which remaining activity at 10 µM value is on record for CC1COC2(C=CC(=O)C(F)=C2)N(c2ccccc2)C1=O (stereo not shown) ?
Result: 51.6%

Query: Which remaining activity at 10 µM value is on record for O=C1C=CC2(C=C1)OCC(Cc1ccc(Br)cc1)C(=O)N2c1ccccc1 (stereo not shown) ?
Result: 27.3%

Query: Which remaining activity at 10 µM value is on record for O=C1C=CC2(C=C1)OCC(Cc1ccccc1)C(=O)N2c1cccnc1 (stereo not shown) ?
Result: 66.1%
